B1: Twister Ribozyme (parent)
chain: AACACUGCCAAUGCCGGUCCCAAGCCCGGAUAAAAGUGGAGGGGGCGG

Variants of: B1
measurement.protocol: self-cleavage, relative activity (ratio to wild type); higher = more cleavage; co-transcriptional
Recorded self-cleavage by entry
Keep it simple and answer with nothing but the number.

For orientation, consider the following solved cases.
1. AACACCCCCAAUGCCGGUCCCAAGCCCGGAUAAAAGUGGAGGGGGCGG [U6C G7C]; 0.0439
2. AACACUGCCAAUGCCGGUCCCAAGCCCCAAUAAAAGUGGAGGGGGCGG [G28C G29A]; 1

Need self-cleavage, item AACACUGCCAUUGCCGGUUCCAAGCCCGGAUAAAAGUGGAGGGGGCGG [A11U C19U]
0.933

Need self-cleavage, item AACACUGCCAAUGGCGGUCCCAAGCCCAGAUAAAAGUGGAGGGGGCGG [C14G G28A]
0.162
